For reference, the following IC50 results for ALK tyrosine kinase receptor (Homo sapiens) were taken from various sources.

Below are worked cases with known answers.
[
  {
    "compound": "Cc1n[nH]c2nc(-c3ccc(N)cc3F)c(C#N)c(-c3ccc(N4CCNCC4)cc3)c12",
    "system": "ALK tyrosine kinase receptor (Homo sapiens)",
    "IC50": "1000 to 10000 nM"
  },
  {
    "compound": "Ic1cnc2c(c1)NCCN2",
    "system": "ALK tyrosine kinase receptor (Homo sapiens)",
    "IC50": "> 100000 nM"
  },
  {
    "compound": "FC(F)(F)c1ccc(CN2CCNc3ncc(I)cc32)o1",
    "system": "ALK tyrosine kinase receptor (Homo sapiens)",
    "IC50": "10000 to 100000 nM"
  },
  {
    "compound": "Cc1n[nH]c2nc(-c3c(F)ccc(F)c3F)c(C#N)c(-c3ccc(N4CCNCC4)cc3)c12",
    "system": "ALK tyrosine kinase receptor (Homo sapiens)",
    "IC50": "100 to 1000 nM"
  },
  {
    "compound": "COc1ccc(NC(=O)CN(C)C)cc1Nc1nc(Nc2ccccc2C(N)=O)c2cc[nH]c2n1",
    "system": "ALK tyrosine kinase receptor (Homo sapiens)",
    "IC50": "0.251 to 1 nM"
  }
]

Query: Please give the measured IC50 for this compound: Cc1n[nH]c2nc(-c3ccc(O)cc3F)c(C#N)c(-c3ccc([N+](=O)[O-])cc3)c12
Result: 1000 to 10000 nM

Query: Again, but for Cc1n[nH]c2nc(-c3ccc(O)c(Br)c3)c(C#N)c(-c3ccc(N4CCNCC4)cc3)c12
Result: 100 to 1000 nM

Query: Another compound: O=C1CNc2ncc(I)cc2N1Cc1ccccc1
Result: 10000 to 100000 nM

Query: Next up: O=C(c1ccc(-c2cnc3c(c2)N(Cc2cc(Cl)ccc2C(F)(F)F)CCN3)cc1)N1Cc2ccccc2C1
Result: 100 to 1000 nM

Query: What do you get for O=C(c1cc(F)ccc1F)N1CCNc2ncc(-c3ccc(C(=O)N4CCC[C@H]4CN4CCCC4)cc3)cc21 ?
Result: 10000 to 100000 nM

* * *

Ok so here's the combined literature set: IC50 for ALK tyrosine kinase receptor (Homo sapiens).

Examples from the recorded data:
[
  {
    "smiles.code": "O=C(c1ccc(-c2cnc3c(c2)N(Cc2c(F)ccc(F)c2Cl)CCN3)cc1)N1CCC[C@H]1CN1CCCC1",
    "system": "ALK tyrosine kinase receptor (Homo sapiens)",
    "reported.endpoint": "IC50",
    "result": "< 0.1 µM"
  },
  {
    "smiles.code": "Cc1n[nH]c2nc(-c3ccc(O)cc3F)c(C#N)c(-c3ccc(N(C)C)cc3)c12",
    "system": "ALK tyrosine kinase receptor (Homo sapiens)",
    "reported.endpoint": "IC50",
    "result": "0.1 to 1 µM"
  },
  {
    "smiles.code": "CN1CCC(N2Cc3cc4nc(-c5c(NC[C@@H](O)COc6cc(F)cc(F)c6Cl)cc[nH]c5=O)[nH]c4cc3C2=O)CC1",
    "system": "ALK tyrosine kinase receptor (Homo sapiens)",
    "reported.endpoint": "IC50",
    "result": "0.5 to 5 µM"
  },
  {
    "smiles.code": "COc1cc(OCCCN2CCN(C)CC2)ccc1Nc1nc(Nc2cccc(F)c2C(N)=O)c2cc[nH]c2n1",
    "system": "ALK tyrosine kinase receptor (Homo sapiens)",
    "reported.endpoint": "IC50",
    "result": "0.00126 to 0.00398 µM"
  },
  {
    "smiles.code": "C[C@H]1CN(C)Cc2c(c(OCC#N)nn2C)/C=C/c2n[nH]c3ccc(cc23)-c2cnn(C)c2O1",
    "system": "ALK tyrosine kinase receptor (Homo sapiens)",
    "reported.endpoint": "IC50",
    "result": "0.00113 µM"
  },
  {
    "smiles.code": "CN1CCC(N2Cc3cc4nc(-c5c(NC[C@@H](O)COc6cccc(C(F)(F)F)c6Cl)cc[nH]c5=O)[nH]c4cc3C2=O)CC1",
    "system": "ALK tyrosine kinase receptor (Homo sapiens)",
    "reported.endpoint": "IC50",
    "result": "> 15 µM"
  }
]

As a next step, examine the molecule that follows.
Query: What is its IC50 for ALK tyrosine kinase receptor (Homo sapiens)? Entry: COc1cc(N2CCC(N3CCOCC3)CC2)ccc1Nc1nc(Nc2ccc(F)cc2C(N)=O)c2cc[nH]c2n1
Result: 0.000251 to 0.001 µM
